molecular target: POSH (Homo sapiens)
Labelling: IC50 reported below 700 nM becomes Condition met; at or above becomes Condition not met.

Worked cases, answers included:
Cc1ccc2nsnc2c1/N=C/c1c(O)ccc2ccccc12 ... Condition met
Oc1ccc(/N=C/c2cccs2)cc1-c1nc2ccccc2s1 ... Condition not met
O=C(NC(C(Cl)(Cl)Cl)S(=O)(=O)c1ccccc1)c1ccc(Cl)cc1Cl (centres unmarked) ... Condition met
COC(=O)c1ccc(N2C(=O)c3cccc(N)c3C2=O)cc1 ... Condition not met
O=C1CC(NNc2ccccc2)C(=O)N1c1cccc(Cl)c1 (centres unmarked) ... Condition not met
COc1ccccc1/C=C1\N=C(c2ccccc2Cl)OC1=O ... Condition not met
Oc1c(Br)cc(Cl)cc1/C=N/c1ccccn1 ... Condition not met
Cc1cc([N+](=O)[O-])ccc1/N=C/c1ccc[nH]1 ... Condition met
CC(=C\c1ccccc1)/C=C1/SC(=N)NC1=O ... Condition not met
Cc1cc(/N=C/c2c(O)ccc3ccccc23)no1 ... Condition not met

Exam item: Dear reviewer, please state whether Cc1cc(C)c(O)c(/N=C/c2c(O)ccc3ccccc23)c1 has IC50 strictly beneath 700 nM.
Marked response: Condition not met

Exam item: Dear reviewer, please state whether CC(C)(C)c1ccc(O)c(/N=C/C=C/c2cccc([N+](=O)[O-])c2)c1 has IC50 strictly beneath 700 nM.
Marked response: Condition met

----------
target: Hmdm2 (Homo sapiens, UniProt Q00987); assay: Selectivity (% A in 1 μM), ubiquitin ligase activity of Hmdm2; type: biochemical; conditions: % activity at 1 μM compound; control is related to 100% activity; HTS protocol; read-out: Selectivity (% A* in 1 μM) Hmdm2
Sequence (Q00987 whole entry): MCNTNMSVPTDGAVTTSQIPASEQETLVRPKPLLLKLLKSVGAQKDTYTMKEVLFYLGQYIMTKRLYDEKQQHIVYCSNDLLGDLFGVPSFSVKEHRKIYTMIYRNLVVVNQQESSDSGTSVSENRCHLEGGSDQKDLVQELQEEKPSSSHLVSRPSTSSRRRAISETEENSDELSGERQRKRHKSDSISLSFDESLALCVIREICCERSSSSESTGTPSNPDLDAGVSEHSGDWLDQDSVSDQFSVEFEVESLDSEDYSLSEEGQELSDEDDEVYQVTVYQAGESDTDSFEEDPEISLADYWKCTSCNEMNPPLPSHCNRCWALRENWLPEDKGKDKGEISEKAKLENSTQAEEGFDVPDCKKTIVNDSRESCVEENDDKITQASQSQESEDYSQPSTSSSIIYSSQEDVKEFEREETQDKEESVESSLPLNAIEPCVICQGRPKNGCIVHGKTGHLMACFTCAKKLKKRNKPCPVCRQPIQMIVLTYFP
assay endpoint: remaining activity at 1 µM (%)
State the answer as a number, implicitly in %.

O=c1oc2cc(O)ccc2cc1-c1csc(-c2ccc(Cl)cc2)n1 ... 159
COc1ccc(CC(C)NCc2ccccc2Cl)cc1 (stereo not drawn) ... 113
O=C(NCc1ccc(Cl)cc1)C(=O)Nc1ccccc1 ... 145

Query O=c1nc(C(F)(F)F)cc(/C=C/c2ccc(-c3ccc(Br)cc3)o2)[nH]1 yields remaining activity at 1 µM of 108

Query COc1ccc(C(=O)CC2=C(O)C(=O)c3ccccc3C2=O)cc1 yields remaining activity at 1 µM of 79

Query O=C1NC(=S)N(c2ccccc2)C(=O)/C1=C\c1c(Cl)cccc1Cl yields remaining activity at 1 µM of 129

Query O=C1/C(=C\c2cccc([N+](=O)[O-])c2)Sc2ccccc21 yields remaining activity at 1 µM of 107

----------
test system: E2 protein; format: biochemical; settings: % activity at 1 μM compound; control is related to 100% activity; HTS protocol
assay endpoint: Selectivity (% A* in 1 μM) E2 (%)
State the answer as a number, implicitly in %.

Cc1ccc(/C=N/c2ccc(C(N)=O)cc2)o1 ... 64
Oc1c(Br)cc(Cl)cc1/C=N/c1ccccn1 ... 117
Oc1c(Cl)cc(Cl)cc1/C=N/c1ccc(-c2nc3ccccc3[nH]2)cc1 ... 109

Query O=C1/C(=C\c2cccc([N+](=O)[O-])c2)Sc2ccccc21 yields Selectivity (% A* in 1 μM) E2 of 63

Query O=C(C(Cl)Cl)N1CCN(c2ccc([N+](=O)[O-])cc2)CC1 yields Selectivity (% A* in 1 μM) E2 of 55

Query O=C1C=CC(=O)N1c1cc(Cl)cc(Cl)c1 yields Selectivity (% A* in 1 μM) E2 of 112

Query COC(=O)C1=C(C(=O)OC)SC(=C2C(=S)C(C)(C)N(C(C)=O)c3cc(C)ccc32)S1 yields Selectivity (% A* in 1 μM) E2 of 89

Query COC(=O)c1ccc(N2C(=O)c3cccc(N)c3C2=O)cc1 yields Selectivity (% A* in 1 μM) E2 of 75

----------
target: POSH (Homo sapiens, UniProt Q7Z6J0)
pIC50: −log10 of the molar value.
Outcome: class 1 for pIC50 of at least 6; class 0 for anything lower.

Worked cases, answers included:
CN(C)c1ccc(/C=C2\C(=O)N(c3ccc([N+](=O)[O-])cc3)N=C2N2CCOCC2)cc1 ... class 0
O=C1c2ccccc2-c2nc3nonc3nc21 ... class 1
CC(C)Oc1ccc(/C=C2/SC(=S)NC2=O)cc1 ... class 0

Here is another compound to look at.
Exam item: Form field: pIC50 at least 6? Entry: O=C1/C(=C\c2ccc(Cl)c([N+](=O)[O-])c2)Sc2ccccc21
Marked response: class 1

----------
Target: POSH (Homo sapiens)
Construct: GST-POSH lot NB81/p.118 3.6 mg/ml; fused on or other part: GST tag, used for detection with anti-GST XL665
Sequence (Q7Z6J0 1-269 limits assumed): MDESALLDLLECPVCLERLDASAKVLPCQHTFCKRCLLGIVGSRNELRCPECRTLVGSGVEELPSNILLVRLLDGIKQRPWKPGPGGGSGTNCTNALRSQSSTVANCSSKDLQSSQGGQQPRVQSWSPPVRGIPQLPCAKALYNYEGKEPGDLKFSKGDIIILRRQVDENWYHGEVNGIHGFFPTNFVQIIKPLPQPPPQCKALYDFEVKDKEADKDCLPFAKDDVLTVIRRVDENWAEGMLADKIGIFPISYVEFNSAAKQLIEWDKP
Assay: Selectivity (% A in 1 μM), ubiquitin ligase activity of POSH
Format: biochemical
Conditions: % activity at 1 μM compound; control is related to 100% activity; HTS protocol; read-out: Selectivity (% A* in 1 μM) POSH
The entries below are paired with their reported remaining activity at 1 µM.
Remember to put the unit after the number in your answer.

Past entries and their recorded results:
O=C1\C(=C/C=C/C=C/Nc2ccccc2)SC(=S)N1c1ccccc1 [Compound 24] ... 7%
CN(C)c1ccc(/C=C2/C(=O)NC(=O)N(C3CCCCC3)C2=O)cc1 [Compound 3] ... 47%
COc1cc(N/C=C2/C(=O)NC(=S)N(c3ccc(F)cc3)C2=O)cc(OC)c1 [Compound 17] ... 71%
O=C1N=C(c2ccccc2)S/C1=C/c1ccc(-c2cccc([N+](=O)[O-])c2)o1 [Compound 36] ... 6%
O=[N+]([O-])c1ccc(Cl)cc1CN1CCN(CCO)CC1 [Compound 82] ... 60%

Query COc1ccc(Nc2ccc(O)c3c2C(=O)c2ccccc2C3=O)cc1 [Compound 100] yields remaining activity at 1 µM of 99%

Query Cc1cc(C)c(O)c(/N=C/c2c(O)ccc3ccccc23)c1 [Compound 65] yields remaining activity at 1 µM of 8%

Query N/N=C\c1ccc(-c2cccs2)s1 [Compound 37] yields remaining activity at 1 µM of 41%

----------
The entries below are paired with their reported activity at 3 µM.
system: HIV-1; test: HIV maturation (budding) in virus-like particle assay, HIV-1 p24 antigen ELISA; type: cell-based; conditions: Human immunodeficiency virus 1, read-out: Budding (3 μM)

OCc1cccc(/N=C/c2cccc(O)c2O)c1 ... 61%
Cc1ccc(/N=C/c2cccc(O)c2O)cc1C ... 59%

Switching to the query record.
Query C=CCN1C(=O)/C(=C/c2c3ccccc3cc3ccccc23)SC1=S yields activity at 3 µM of 60%

----------
System: POSH (Homo sapiens, UniProt Q7Z6J0) | Read-out: IC50
Remember to put the unit after the number in your answer.

O=c1oc2cc(O)ccc2cc1-c1csc(-c2ccc(Cl)cc2)n1 [Compound 40] ... 1000 nM
Cc1c(Br)c(=O)oc2c(Br)c(O)c(O)cc12 [Compound 83] ... 1000 nM
Cc1cc(O)c(C(=O)/C=C/c2cccc(I)c2)c(=O)o1 [Compound 87] ... 800 nM
O=C1NC(=O)N(c2ccccc2)C(=O)/C1=C\c1ccc2c(c1)OCO2 [Compound 4] ... 800 nM
Cc1ccc2nc(-c3ccc(/N=C/c4ccc([N+](=O)[O-])s4)cc3)sc2c1 [Compound 72] ... 800 nM

Switching to the query record.
Per the reported POSH (Homo sapiens, UniProt Q7Z6J0) data, Cc1ccc(C(=O)NN=C2CCC(=NNC(=O)c3ccc(C)cc3)CC2)cc1 [Compound 93] has IC50 of 1300 nM

----------
biological target: Hmdm2 (Homo sapiens, UniProt Q00987); assay: Selectivity (% A in 1 μM), ubiquitin ligase activity of Hmdm2; type: biochemical; settings: % activity at 1 μM compound; control is related to 100% activity; HTS protocol; read-out: Selectivity (% A* in 1 μM) Hmdm2
assay endpoint: remaining activity at 1 µM (%)
State the answer as a number, implicitly in %.

O=C1CC(NNc2ccccc2)C(=O)N1c1cccc(Cl)c1 (centres unmarked) ... 102

Per the reported Hmdm2 (Homo sapiens, UniProt Q00987) data, Cc1cc(/N=C/c2c(O)ccc3ccccc23)no1 has remaining activity at 1 µM of 72

Per the reported Hmdm2 (Homo sapiens, UniProt Q00987) data, O=C1NC(=O)N(c2ccc(Br)cc2)C(=O)/C1=C/c1ccc(O)cc1 has remaining activity at 1 µM of 61

Per the reported Hmdm2 (Homo sapiens, UniProt Q00987) data, O=C1\C(=C/C=C/C=C/Nc2ccccc2)SC(=S)N1c1ccccc1 has remaining activity at 1 µM of 69

Per the reported Hmdm2 (Homo sapiens, UniProt Q00987) data, COc1cc(N/C=C2/C(=O)NC(=S)N(c3ccc(F)cc3)C2=O)cc(OC)c1 has remaining activity at 1 µM of 106
